Cited source for all entries: paper PMC7381729

SUBJECT OF TEST: human CXCR4 (hCXCR4) (Homo sapiens)
Construct: hCXCR4-expressing Jurkat human T-cell leukemia cells; endogenous in cells; host or cells: Jurkat human T-cell leukemia cells (whole cells)
Sequence (P61073 whole entry): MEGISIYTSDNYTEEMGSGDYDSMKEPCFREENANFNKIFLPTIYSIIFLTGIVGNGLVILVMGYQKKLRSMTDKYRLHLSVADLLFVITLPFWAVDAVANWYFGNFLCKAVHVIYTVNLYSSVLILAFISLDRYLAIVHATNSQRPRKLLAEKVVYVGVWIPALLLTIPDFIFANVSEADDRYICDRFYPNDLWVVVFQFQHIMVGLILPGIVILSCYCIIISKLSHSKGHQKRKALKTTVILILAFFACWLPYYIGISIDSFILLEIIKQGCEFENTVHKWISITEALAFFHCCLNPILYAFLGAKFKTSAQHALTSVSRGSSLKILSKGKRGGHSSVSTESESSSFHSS
ASSAY PROCEDURE: Competition binding to hCXCR4, Jurkat cells, [125I]FC-131 as radioligand
ASSAY CONDITIONS: natLu-complex, Jurkat cells 400.000 cells/sample, means ± SD of min. three separate experiments, read-out: ^natLu-complex IC50 to hCXCR4
TEST READOUT: IC50 (nM)

SUBSTANCE | MEASUREMENT UNITS | OBSERVED MEASUREMENT
DOTAGA-G-ABA-iodoCPCR4 (head to tail) [entry 7] | nM | 39
DOTAGA-ABA-iodoCPCR4 (head to tail) [entry 4] | nM | 28

----------
ASSAY PROCEDURE: Biodistribution in Daudi xenograft bearing mice
Assay type: in vivo, mouse
ASSAY CONDITIONS: female, CB-17 SCID, mouse, pancreas, iv, total radioactivity, 6h p.i., i.v.; means ± SD, n=4-5; read-out: Biodistribution pancreas
Protocol: The biodistribution of selected compounds was investigated in Daudi (human B-cell lymphoma) xenograft bearing female CB-17 SCID mice (6-8 weeks, Charles River, Sulzfeld, Germany), [29]. […] Animals (n=4-5 per group) were injected intravenously with 5-10 MBq (0.08-0.11 nmol peptide per mouse) of the respective ^68Ga- and^ 177Lu-labeled CXCR4 ligands in PBS (100 µL) into the tail vein under isoflurane anesthesia. CXCR4-specificity of binding was determined by coinjection of 50 µg AMD3100 per mouse. […]
Where a SMILES comes first, the peptide text is derived from it. Side-chain parts run from the residue outwards. [ ]: non-standard residue; d: D form. The star is where a group is joined. DOTA = O=C(O)CN1CCN(CC(=O)O)CCN(CC(=O)*)CCN(CC(=O)O)CC1; dTyr(3-I) = N[C@H](Cc1ccc(O)c(I)c1)C(=O)O; 2Nal = N[C@@H](Cc1ccc2ccccc2c1)C(=O)O; dNMeOrn = CN[C@H](CCCN)C(=O)O; 4Abz = Nc1ccc(C(=O)O)cc1
Entries and their tissue uptake at 6 h
Please reply with the bare figure in %ID/g and do not write the unit itself.

MOLECULE | tissue uptake at 6 h, %ID/g
C[C@@H](NC(=O)[C@@H](CCCNC(=N)N)NC(=O)CN1CCN(CC(=O)O)CCN(CC(=O)O)CCN(CC(=O)O)CC1)C(=O)Nc1ccc(C(=O)NCCC[C@@H]2C(=O)N[C@@H](CCCNC(=N)N)C(=O)N[C@@H](Cc3ccc4ccccc4c3)C(=O)NCC(=O)N[C@H](Cc3ccc(O)c(I)c3)C(=O)N2C)cc1 [[^177Lu]DOTA-r-a-ABA-iodoCPCR4, metal not drawn] (cyclo([2Nal]G[dTyr(3-I)][dNMeOrn]([4Abz-dA-dR-DOTA])R)) | 0.11

Pending molecule:
QUERY: For the molecule C[C@@H](NC(=O)[C@@H](CCCNC(=N)N)NC(=O)CN1CCN(CC(=O)O)CCN(CC(=O)O)CCN(CC(=O)O)CC1)C(=O)Nc1ccc(C(=O)NCCC[C@@H]2C(=O)N[C@@H](CCCNC(=N)N)C(=O)N[C@@H](Cc3ccc4ccccc4c3)C(=O)NCC(=O)N[C@H](Cc3ccc(O)cc3)C(=O)N2C)cc1 [[^177Lu]DOTA-r-a-ABA-CPCR4, metal not drawn] (cyclo([2Nal]G[dY][dNMeOrn]([4Abz-dA-dR-DOTA])R)) , give its reported tissue uptake at 6 h.
RESULT: 0.08
